Test system: Escherichia coli DSM 1116
Test: Antibacterial activity (MIC, curve fitting)
Type: cell-based
Settings: Table S12; ± standard error of the mean
Record form. Attribute: MIC, E. coli. Fill in for each entry.
Numbers only, in µM.

>>> reported_value("COC(=O)c1cn(C)[c]([Au-][Cl])[n+]1C")
41.39
>>> reported_value("Cn1cc(C(=O)O)[n+](C)[c]1[Au-]([Cl])([Cl])[Cl]")
72.16
>>> reported_value("CC(=O)OC[C@H]1O[C@@H]([S-])[C@H](OC(C)=O)[C@@H](OC(C)=O)[C@@H]1OC(C)=O.CCP(CC)CC.[Au+] [AF, auranofin, reference compound]")
46

Here is another compound to look at.
Which MIC, E. coli is listed for COC(=O)c1cn(C)[c]([Au-]([Cl])([Cl])[Cl])[n+]1C ?
34.97

====

Test system: Escherichia coli DSM 1116
Assay: Antibacterial activity (MIC, curve fitting)
Type: cell-based
Conditions: Table S12; ± standard error of the mean
Provide the reported MIC, E. coli of each item.
One number for each entry, in µM.

>>> reported_value("Cn1cc(C(=O)O)[n+](C)[c]1[Au-][Cl]")
85.89
>>> reported_value("CCOC(=O)c1cn(C)[c]([Au-][Cl])[n+]1C")
39.94
>>> reported_value("Cn1cc(C(=O)O)[n+](C)[c]1[Au-][c]1n(C)cc(C(=O)O)[n+]1C.[Cl-]")
62.4

Now look at this entry.
Sample CCOC(=O)c1cn(C)[c]([Au-]([Cl])([Cl])[Cl])[n+]1C — what was its MIC, E. coli?
33.93

====

System: Enterococcus faecium DSM20477
Assay: Antibacterial activity (MIC, curve fitting)
Assay type: cell-based
Conditions: Table S12; ± standard error of the mean
Description: The antibacterial activity of all gold complexes was assessed against six pathogenic bacterial strains, including two Gram-positive species, i.e. Enterococcus faecium and methicillin-resistant Staphylococcus aureus (MRSA), and four Gram-negative species, i.e. Acinetobacter baumannii, Escherichia coli, Klebsiella pneumoniae, and Pseudomonas aeruginosa. Minimum inhibitory concentrations (MICs) were determined using a curve-fitting technique. S2.1. Antibacterial Studies […]
Task for the reader: assign each of the following compounds its reported MIC, E. faecium.

>>> reported_value("CCOC(=O)c1cn(C)[c]([Au-]([Cl])([Cl])[c]2n(C)cc(C(=O)OCC)[n+]2C)[n+]1C.F[B-](F)(F)F [5c]")
"> 100 µM"
>>> reported_value("Cn1cc(C(=O)O)[n+](C)[c]1[Au-][c]1n(C)cc(C(=O)O)[n+]1C.[Cl-] [3a]")
"> 100 µM"
>>> reported_value("COC(=O)c1cn(C)[c]([Au-]([Cl])([Cl])[Cl])[n+]1C [4b]")
"17.49 ± 0 µM"
>>> reported_value("COC(=O)c1cn(C)[c]([Au-][c]2n(C)cc(C(=O)OC)[n+]2C)[n+]1C.O=S(=O)([O-])C(F)(F)F [3b]")
"> 100 µM"
>>> reported_value("CC(=O)OC[C@H]1O[C@@H]([S-])[C@H](OC(C)=O)[C@@H](OC(C)=O)[C@@H]1OC(C)=O.CCP(CC)CC.[Au+] [AF, auranofin, reference compound]")
"0.3 µM"
>>> reported_value("Cn1cc(C(=O)O)[n+](C)[c]1[Au-][Cl] [2a]")
"> 100 µM"

Below are 2 compounds. Give each one its MIC, E. faecium.
1. Cn1cc(C(=O)O)[n+](C)[c]1[Au-]([Cl])([Cl])[Cl] [4a]
2. CCOC(=O)c1cn(C)[c]([Au-]([Cl])([Cl])[Cl])[n+]1C [4c]

["> 100 µM", "16.97 ± 0 µM"]

All values here come from paper PMC11342128.
